target: human V1a receptor (Homo sapiens); construct: expressed in transfected cells; host or cells: CHO K1 (ATCC), also stably transfected with a modified aequorin; assay: Cellular in vitro assay for determining vasopressin receptor activity (V1a, aequorin luminescence); assay type: cell-based; details: selectivity ratio of IC50 hV2 to IC50 hV1a
Sequence (P37288 whole entry): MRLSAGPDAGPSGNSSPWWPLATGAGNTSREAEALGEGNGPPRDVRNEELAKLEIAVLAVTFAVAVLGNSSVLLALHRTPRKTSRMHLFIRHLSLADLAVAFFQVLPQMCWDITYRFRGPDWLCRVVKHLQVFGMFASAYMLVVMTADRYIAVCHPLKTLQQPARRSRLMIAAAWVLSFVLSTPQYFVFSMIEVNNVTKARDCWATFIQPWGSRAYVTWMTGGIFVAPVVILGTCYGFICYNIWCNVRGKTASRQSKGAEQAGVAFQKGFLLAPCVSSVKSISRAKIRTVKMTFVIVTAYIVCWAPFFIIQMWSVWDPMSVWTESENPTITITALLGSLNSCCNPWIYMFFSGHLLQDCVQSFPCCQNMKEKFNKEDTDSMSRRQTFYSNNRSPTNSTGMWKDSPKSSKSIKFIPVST
Structures can show the parent of a compound that is named as a salt.
MEASUREMENT NAME: ratio IC50 hV2/hV1a

>  <MOLECULE>
COc1ccccc1-n1nc(Cn2nc(-c3ccc(Cl)cc3)n(C[C@H](O)C(F)(F)F)c2=O)nc1COC(N)=O [Example 27]

>  <MEASUREMENT NAME>
ratio IC50 hV2/hV1a

>  <OBSERVED RESULT>
1.8

$$$$
>  <MOLECULE>
O=C1NC(c2nc(Cn3nc(-c4ccc(Cl)cc4)n(C[C@H](O)C(F)(F)F)c3=O)nn2-c2ccccc2Cl)CO1 (mixture of isomers) [Example 98]

>  <MEASUREMENT NAME>
ratio IC50 hV2/hV1a

>  <OBSERVED RESULT>
9.8

$$$$
>  <MOLECULE>
C[C@H](OC(N)=O)c1nc(Cn2nc(-c3ccc(Cl)cc3)n(C[C@H](O)C(F)(F)F)c2=O)nn1-c1ncccc1F [Example 12]

>  <MEASUREMENT NAME>
ratio IC50 hV2/hV1a

>  <OBSERVED RESULT>
3.6

$$$$
>  <MOLECULE>
C[C@H](OC(N)=O)c1nc(Cn2nc(-c3ccc(Cl)cc3)n(C[C@H](O)C(F)(F)F)c2=O)nn1-c1ccc(Cl)cn1 [Example 16]

>  <MEASUREMENT NAME>
ratio IC50 hV2/hV1a

>  <OBSERVED RESULT>
0.3

$$$$
>  <MOLECULE>
C[C@H](OC(N)=O)c1nc(Cn2nc(-c3ccc(Cl)cc3)n(C[C@H](O)C(F)(F)F)c2=O)nn1-c1ncccc1Cl [Example 14]

>  <MEASUREMENT NAME>
ratio IC50 hV2/hV1a

>  <OBSERVED RESULT>
29.7

$$$$
>  <MOLECULE>
CNc1ccncc1-n1nc(Cn2nc(-c3ccc(Cl)cc3)n(C[C@H](O)C(F)(F)F)c2=O)nc1C(C)NC(C)=O (single isomer, unassigned) [Example 127]

>  <MEASUREMENT NAME>
ratio IC50 hV2/hV1a

>  <OBSERVED RESULT>
29.3

$$$$
>  <MOLECULE>
COc1ccccc1-n1nc(Cn2nc(-c3ccc(Cl)cc3)n(C[C@H](O)C(F)(F)F)c2=O)nc1C(C)OC(N)=O (single isomer, unassigned) [Example 39]

>  <MEASUREMENT NAME>
ratio IC50 hV2/hV1a

>  <OBSERVED RESULT>
1.6

$$$$
>  <MOLECULE>
CC(=O)NC(C)c1nc(Cn2nc(-c3ccc(Cl)cc3)n(C[C@H](O)C(F)(F)F)c2=O)nn1-c1ncccn1 (mixture of isomers) [Example 129]

>  <MEASUREMENT NAME>
ratio IC50 hV2/hV1a

>  <OBSERVED RESULT>
8.2

$$$$
>  <MOLECULE>
CC(N)c1nc(Cn2nc(-c3ccc(Cl)cc3)n(C[C@H](O)C(F)(F)F)c2=O)nn1-c1cccc(F)c1 (mixture of isomers) [Example 53, trifluoroacetate]

>  <MEASUREMENT NAME>
ratio IC50 hV2/hV1a

>  <OBSERVED RESULT>
0.3

$$$$
>  <MOLECULE>
O=C1NC(c2nc(Cn3nc(-c4ccc(Cl)cc4)n(C[C@H](O)C(F)(F)F)c3=O)nn2-c2ccccc2Cl)CO1 (single isomer, unassigned) [Example 99]

>  <MEASUREMENT NAME>
ratio IC50 hV2/hV1a

>  <OBSERVED RESULT>
6.4

$$$$
>  <MOLECULE>
CNc1ccncc1-n1nc(Cn2nc(-c3ccc(Cl)cc3)n(C[C@H](O)C(F)(F)F)c2=O)nc1C(C)NC(C)=O (mixture of isomers) [Example 125, hydrochloride]

>  <MEASUREMENT NAME>
ratio IC50 hV2/hV1a

>  <OBSERVED RESULT>
9.3

$$$$
>  <MOLECULE>
CC(NC(=O)C(F)(F)F)c1nc(Cn2nc(-c3ccc(Cl)cc3)n(C[C@H](O)C(F)(F)F)c2=O)nn1-c1ccccc1Cl (single isomer, unassigned) [Example 75]

>  <MEASUREMENT NAME>
ratio IC50 hV2/hV1a

>  <OBSERVED RESULT>
14.1

$$$$
>  <MOLECULE>
CC(=O)NC(COC(C)(C)C)c1nc(Cn2nc(-c3ccc(Cl)cc3)n(C[C@H](O)C(F)(F)F)c2=O)nn1-c1ccccc1Cl (single isomer, unassigned) [Example 90]

>  <MEASUREMENT NAME>
ratio IC50 hV2/hV1a

>  <OBSERVED RESULT>
392.0

$$$$
>  <MOLECULE>
C[C@H](OC(N)=O)c1nc(Cn2nc(-c3ccc(Cl)cc3)n(C[C@H](O)C(F)(F)F)c2=O)nn1-c1ccccc1OC(F)F [Example 5]

>  <MEASUREMENT NAME>
ratio IC50 hV2/hV1a

>  <OBSERVED RESULT>
4.4

$$$$
>  <MOLECULE>
C[C@H](OC(N)=O)c1nc(Cn2nc(-c3ccc(Cl)cc3)n(C[C@H](O)C(F)(F)F)c2=O)nn1-c1ccncc1Cl [Example 18]

>  <MEASUREMENT NAME>
ratio IC50 hV2/hV1a

>  <OBSERVED RESULT>
3.9

$$$$
